- SYSTEM: T1, Fus1, P11710
- T1 sequence (P11710 432-512, looked up): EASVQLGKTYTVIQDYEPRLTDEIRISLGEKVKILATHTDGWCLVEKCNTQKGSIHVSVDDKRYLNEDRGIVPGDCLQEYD
- EXPERIMENT NOTES: SPOT array
- EXPERIMENTAL SETUP: median of control spots 1200
Recorded SPOT intensity by entry
MEASUREMENT NAME: SPOT intensity

BINDER | MEASUREMENT NAME | MEAS VALUE
RPPRPPPKPLHLRTE | SPOT intensity | 0
TTNRGPPPLPPRANV | SPOT intensity | 0
RRRDFGAPANKRPRR | SPOT intensity | 8
ALKQKKIPPPFKPHL | SPOT intensity | 0
VQKRKLPLPGSIASA | SPOT intensity | 0
DGNEEKPLLPTRPNK | SPOT intensity | 0
KDKKTKPTPPPKPSH | SPOT intensity | 4
